pKi: recorded values
- Tested target: T1, Human EphA2 (Ecto), C-terminal polyHis (Human, UniProt P29317 24-537)
- T1 construct: extracellular domain; also called EPH receptor A2; ephrin type-A receptor 2
- T1 sequence (P29317 24-537): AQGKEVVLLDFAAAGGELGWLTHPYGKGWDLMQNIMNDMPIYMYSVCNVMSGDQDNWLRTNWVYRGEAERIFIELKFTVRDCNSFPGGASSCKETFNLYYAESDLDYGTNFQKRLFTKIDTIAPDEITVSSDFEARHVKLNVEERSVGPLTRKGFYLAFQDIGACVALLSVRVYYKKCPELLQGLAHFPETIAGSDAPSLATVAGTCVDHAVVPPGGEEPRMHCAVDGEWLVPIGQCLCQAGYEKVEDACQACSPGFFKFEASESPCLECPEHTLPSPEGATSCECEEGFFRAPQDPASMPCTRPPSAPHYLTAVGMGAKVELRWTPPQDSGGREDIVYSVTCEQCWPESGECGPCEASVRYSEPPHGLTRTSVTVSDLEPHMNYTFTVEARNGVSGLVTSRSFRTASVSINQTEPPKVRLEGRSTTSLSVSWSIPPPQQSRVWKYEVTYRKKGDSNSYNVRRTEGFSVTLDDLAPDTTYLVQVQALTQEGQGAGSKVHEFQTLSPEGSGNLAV
- Measurement description: fluorescence polarisation competition; competitor fluorescent Compound 66
Starred links: 1 amine or outer side, 2 acyl side, 3 side chain; linkers in the order of their positions; H or OH if unused. Positions of bridges follow the written chain, without caps; N, C: chain ends. Non-standard residues stand in square brackets, D forms with d. Primed or numbered codes have the meaning given here. No end group written: not given here. TBMB′ = 1,3,5-tris(bromomethyl)benzene, 1,3,5-tris(methylene)benzene core, three thioethers to Cys; 1Nal = N[C@@H](Cc1cccc2ccccc12)C(=O)O; TBMB = c1c(C[*:1])cc(C[*:3])cc1C[*:2]; hArg = N=C(N)NCCCC[C@H](N)C(=O)O; 3Pal = N[C@@H](Cc1cccnc1)C(=O)O; Phg = N[C@H](C(=O)O)c1ccccc1; Tle = CC(C)(C)[C@H](N)C(=O)O; Pip = O=C(O)[C@@H]1CCCCN1; Aib = CC(C)(N)C(=O)O; Sar = CNCC(=O)O
Schema: pKi number; meaning minus log10 of the concentration expressed in molar units.

Solved entries:
| Binder | pKi |
| --- | --- |
| [Sar][Sar]ACPWG[Pip]FWCPVNRPGC (linker 4-11-18 via TBMB′, also called Compound 82) [Bicycle Compound Number 82 (TBMB scaffold)] | 6.30 |
| ACRVSPEYCPFGPEWCA (linker 2-9-16 via TBMB, also called Compound 37) [Bicycle Compound Number 37 (TBMB scaffold)] | 7.21 |

Entry [Sar][Sar]ACP[1Nal]G[Aib]FWCP[Tle]N[hArg]PGC (linker 4-11-18 via TBMB) [Bicycle Compound Number 136 (TBMB scaffold)] , pKi reported as 7.82

Record ACRVSPEYCPFGPYWCA (linker 2-9-16 via TBMB, also called Compound 38) [Bicycle Compound Number 38 (TBMB scaffold)] , field pKi: 7.58

Form field pKi, entry [Sar][Sar]ACPWGP[3Pal]WCPVNRPGC (linker 4-11-18 via TBMB′, also called Compound 92) [Bicycle Compound Number 92 (TBMB scaffold)] : 6.78

Lab book: pKi of [Sar][Sar]ACPWGPFWCP[Tle]NRPGC (linker 4-11-18 via TBMB, also called Compound 100) [Bicycle Compound Number 100 (TBMB scaffold)] noted as 6.95

The recorded pKi for entry [Sar][Sar]ACPWGP[Phg]WCPVNRPGC (linker 4-11-18 via TBMB′, also called Compound 93) [Bicycle Compound Number 93 (TBMB scaffold)] equals 6.39

Please fill in: pKi reported for [Sar][Sar]ACPWGPFWCPVNR[Aib]GC (linker 4-11-18 via TBMB, also called Compound 110) [Bicycle Compound Number 110 (TBMB scaffold)] = 6.86

Per the records, this binder ( [Sar][Sar]ACPWGPFWCPV[dA]RPGC (linker 4-11-18 via TBMB) [Bicycle Compound Number 102 (TBMB scaffold)] ) has pKi equal to 6.51

// pKi value for [Sar][Sar]ACP[1Nal]GPFWCPVN[hArg]PGC (linker 4-11-18 via TBMB, also called Compound 122) [Bicycle Compound Number 122 (TBMB scaffold)] : 8.10

pKi for AEGLPCPWGPFWCPVNRPGCA (linker 6-13-20 via TBMB (inferred), also called Compound 55) [Bicycle Compound Number 55 (TBMB scaffold)] is 8.21
